Source: PubChem BioAssay (NCI)

# Tested on: MDA-MB-468 breast
# assayInfo: NCI-60 one-dose screen, 48 h (100 = growth as untreated, 0 = no growth, -100 = all killed)
# details: 10 µM unless noted
About 83,000 compounds went through this panel and 20% of them were active in at least one assay; those are over-represented in the sample as a whole.

>  <compound>
CC1(C)OC2[C@@H](CNC(=O)NC(=O)NC(=O)CI)O[C@@H](n3cnc4c(NC(=O)Nc5ccccc5)ncnc43)[C@H]2O1 (stereo not given in full)

>  <targetOrSystem>
MDA-MB-468 breast

>  <resultUnits>
%

>  <growth>
64

$$$$
>  <compound>
Cn1c(=O)c2nc3c(=O)n(C)c(=O)n(C)c3nc2n(C)c1=O

>  <targetOrSystem>
MDA-MB-468 breast

>  <resultUnits>
%

>  <growth>
92.1

$$$$
>  <compound>
Cn1ncc2c(=O)nc3c(-c4ccccc4)n[nH]n3c21

>  <targetOrSystem>
MDA-MB-468 breast

>  <resultUnits>
%

>  <growth>
101

$$$$
>  <compound>
CC(C)(C)NC/C(=C\c1ccccc1)C(=O)c1ccccc1

>  <targetOrSystem>
MDA-MB-468 breast

>  <resultUnits>
%

>  <growth>
-50.5

$$$$
>  <compound>
CCCCCCCCCCCCCCCCCC1=NC(C)(C)CN1CCO

>  <targetOrSystem>
MDA-MB-468 breast

>  <resultUnits>
%

>  <growth>
-69

$$$$
>  <compound>
Cc1cccc(C)c1Nc1nnc(-c2ccc(F)cc2)o1

>  <targetOrSystem>
MDA-MB-468 breast

>  <resultUnits>
%

>  <growth>
102

$$$$
>  <compound>
CNS(=O)(=O)c1n[nH]nc1-c1cc(C(C)(C)C)c(O)c(C(C)(C)C)c1

>  <targetOrSystem>
MDA-MB-468 breast

>  <resultUnits>
%

>  <growth>
92.2

$$$$
>  <compound>
CN1CCN(c2nc(-c3cnc4ccccc4n3)cc3ccccc23)CC1

>  <targetOrSystem>
MDA-MB-468 breast

>  <resultUnits>
%

>  <growth>
9.21

$$$$
>  <compound>
Clc1ccccc1CNc1c2ccccc2nc2ccccc12

>  <targetOrSystem>
MDA-MB-468 breast

>  <resultUnits>
%

>  <growth>
-27.9

$$$$
>  <compound>
CS(=O)(=O)c1ccc(-c2nc3ccccn3c2-c2nc3ccc([N+](=O)[O-])cc3[nH]2)cc1

>  <targetOrSystem>
MDA-MB-468 breast

>  <resultUnits>
%

>  <growth>
104

$$$$
